Entries and their measured Cell Viability (% of Control) 25 µM follow.
# System: PANC-1 cells
# assay overview: CellTiter-Glo luminescent cell viability assay, PANC-1
# condition parameters: PANC-1; 25 µM; 72 h; second-set screening; mean ± SD, n = 2

{"compound": "NCC#Cc1cccc(CN2C(=O)C3=C(CCN(Cc4ccc(C(=O)N[c-]5cccc5)cc4)C3)N3CCN=C23)c1.[Fe+2].c1cc[cH-]c1 [33a]", "measurement name": "Cell Viability (% of Control) 25 µM", "reported": "4 ± 5 % of Control"}
{"compound": "NCC#Cc1ccc(CN2C(=O)C3=C(CCN(Cc4ccc(-n5cc(-[c-]6cccc6)nn5)cc4)C3)N3CCN=C23)cc1.[Fe+2].c1cc[cH-]c1 [I/A, reference compound]", "measurement name": "Cell Viability (% of Control) 25 µM", "reported": "0 ± 0 % of Control"}
{"compound": "NCc1cccc(CN2C(=O)C3=C(CCN(Cc4ccc(-n5cc(-[c-]6cccc6)nn5)cc4)C3)N3CCN=C23)c1.[Fe+2].c1cc[cH-]c1 [37a]", "measurement name": "Cell Viability (% of Control) 25 µM", "reported": "16 ± 8 % of Control"}

Lab request: please report Cell Viability (% of Control) 25 µM under test system PANC-1 cells for NCC#Cc1cccc(CN2C(=O)C3=C(CCN(Cc4ccc(-n5cc(-[c-]6cccc6)nn5)cc4)C3)N3CCN=C23)c1.[Fe+2].c1cc[cH-]c1 [2a]
0 ± 0 % of Control

Provide the documented Cell Viability (% of Control) 25 µM with PANC-1 cells as the system for NCC#Cc1cccc(CN2C(=O)C3=C(CCN(Cc4ccc(NC(=O)[c-]5cccc5)cc4)C3)N3CCN=C23)c1.[Fe+2].c1cc[cH-]c1 [23a]
52 ± 55 % of Control

Enter reported Cell Viability (% of Control) 25 µM observed with PANC-1 cells for CN(C)CC#Cc1cccc(CN2C(=O)C3=C(CCN(Cc4ccc(-n5cc(-[c-]6cccc6)nn5)cc4)C3)N3CCN=C23)c1.[Fe+2].c1cc[cH-]c1 [39a]
35 ± 41 % of Control

Record CNCC#Cc1cccc(CN2C(=O)C3=C(CCN(Cc4ccc(-n5cc(-[c-]6cccc6)nn5)cc4)C3)N3CCN=C23)c1.[Fe+2].c1cc[cH-]c1 [38a] : what is its Cell Viability (% of Control) 25 µM with PANC-1 cells?
0 ± 0 % of Control

Notebook: pull reported Cell Viability (% of Control) 25 µM for PANC-1 cells, entry O=C1C2=C(CCN(Cc3ccc(-n4cc(-[c-]5cccc5)nn4)cc3)C2)N2CCN=C2N1Cc1cccc(C#CCN2CCOCC2)c1.[Fe+2].c1cc[cH-]c1 [42a]
58 ± 36 % of Control

Request - read-out Cell Viability (% of Control) 25 µM | tested on PANC-1 cells | compound O=C1C2=C(CCN(Cc3ccc(-n4cc(-[c-]5cccc5)nn4)cc3)C2)N2CCN=C2N1Cc1cccc(C#CCN2CCCCC2)c1.[Fe+2].c1cc[cH-]c1 [40a]
61 ± 67 % of Control
